Target: melatonin Mel1c receptor (Xenopus laevis, UniProt P49219)
Sequence (P49219 1-420): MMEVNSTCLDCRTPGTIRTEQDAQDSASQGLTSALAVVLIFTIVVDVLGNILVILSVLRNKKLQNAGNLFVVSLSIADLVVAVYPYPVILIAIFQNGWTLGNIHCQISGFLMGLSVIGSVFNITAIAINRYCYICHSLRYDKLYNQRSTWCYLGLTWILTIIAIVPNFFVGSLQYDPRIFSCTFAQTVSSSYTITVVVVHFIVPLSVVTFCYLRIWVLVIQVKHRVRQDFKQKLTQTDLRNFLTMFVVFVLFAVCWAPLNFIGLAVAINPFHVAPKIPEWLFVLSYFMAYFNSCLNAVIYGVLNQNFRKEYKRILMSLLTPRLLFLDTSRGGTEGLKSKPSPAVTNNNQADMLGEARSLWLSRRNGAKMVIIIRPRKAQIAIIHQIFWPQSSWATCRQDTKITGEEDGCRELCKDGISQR
Test: IP accumulation, melatonin Mel1c receptor coexpressed with Gα subunit in COS-7
Settings: COS-7, Mel1c + 16z44; read-out: EC50, formation of IP
pEC50: −log10 of the molar value.
MEASUREMENT KIND: pEC50

Entry COc1ccc2[nH]c(I)c(CCNC(C)=O)c2c1 , melatonin Mel1c receptor (Xenopus laevis, UniProt P49219) data, pEC50 value: ~9.40

These measurements were taken from patent US6462178B1.
